System: OVCAR-5 ovarian
Test: NCI-60 one-dose screen, 48 h
Conditions: 10 µM unless noted
This is part of a sample that, as a whole, favours compounds with a hit. Of some 83,000 tested, about 20% had one in any assay. Calls of active or inactive are those of the source. Rule for the calls: active = growth percent below 10; inactive = the rest.
Pick one and only one: active, inactive

structure_as_smiles | discrete_label
c1ccc2c(-c3c[nH]c4ccccc34)c3c(cc2c1)[nH]c1ccccc13 | inactive

Req: # lookup: test call for C/C(=N\NC(=O)CSc1nc2ccccc2c(=O)n1CCc1ccc(S(N)(=O)=O)cc1)c1ccccn1
Resp: inactive

Req: I would be grateful if you could indicate the recorded call for CNCCOc1nc2c3cnccc3cc(-c3cc(OC)c(OC)c(OC)c3)c2c2ccncc12 .
Resp: active

Req: State the result this test recorded for C[C@H](c1nc2ccc(N)cc2[nH]1)[C@H]1CC[C@H]2[C@@H]3CCC4=CC(=O)CC[C@]4(C)[C@H]3CC[C@]12C .
Resp: inactive
